measured-on: T1, HSP70 (human HSP70; the antigen of the binning, humanization and variant binding assays) (human, UniProt P0DMV8 1-641, limits assumed)
T1 construct: also called hu HSP70
assay-protocol: BLI, anti-human Fc capture, antigen dilution series, 1:1 fit
observable: koff (s⁻¹)
Numeric answer only, unit s⁻¹ assumed.

binder	koff (s⁻¹)
h77A-1.19 (antibody, V domains shown, captured by anti-human Fc) VH: QIQLVQSGAEVKKPGASVKVSCKASGYTFTNYGMNWVRQAPGQGLEWMGWINTYTGEPTYVDDFKGRFTFTTDTSTSTAYMDLRSLRSDDTAVYFCARYDHAMDYWGQGTLVTVSS VL: EIVLTQSPDSLAVSLGERATINCKSSQSLLNSGTRKNYLAWYQQKAGQSPKLLIYWTSTRESGVPDRFSGSGSGTDFTLTIDSLQAEDVAVYYCKQSYTLYTFGGGTKVEIK	0.000111

// recorded koff for h77A-1.8 (antibody, V domains shown, captured by anti-human Fc) VH: QIQLVQSGAEVKKPGASVKVSCKASGYTFTNYGMNWVRQAPGQGLEWMGWINTYTGEPTYADDFKGRFTFTTDTSTSTAYMELRSLRSDDTAVYFCARYDHAMDYWGQGTLVTVSS VL: EIVLTQSPDSLAVSLGERATIKCKSSQSLLNSGTRKNYLAWYQQKAGQSPKLLIYWTSTRESGVPDRFSGSGSGTDFTLTIDSLQAEDVAVYYCKQSYTLYTFGGGTKVEIK : 7.42e-05

// h77A-1.18 (antibody, V domains shown, captured by anti-human Fc) VH: QIQLVQSGAEVKKPGASVKVSCKASGYTFTNYGMNWVRQAPGQGLEWMGWINTYTGEPTYADDFKGRFTFTTDTSTRTAYMELRSLRSDDTAVYFCARYDHAMDYWGQGTLVTVSS VL: EIVLTQSPDSLAVSLGERATINCKSSQSLLNSGTRKNYLAWYQQKAGQSPKLVIYWTSTRESGVPDRFSGSGSGTDFTLTIDSLQAEDVAVYYCKQSYTLYTFGGGTKVEIK : koff value = 9.1e-05
